Entries and their EC50 values follow.
- System: CEM cells HIV-1 protection, formazan growth assay
- method: NCI AIDS Antiviral Assay

- compound: "c1cnc2nc3n(c2c1)CSC3"
  endpoint: "EC50"
  value: "> 380 µM"
- compound: "O=C1OC(=C(Cl)Cl)C2C3c4ccccc4C(c4ccccc43)C12 (stereo unspecified)"
  endpoint: "EC50"
  value: "> 100 µM"

[in] For the compound COc1ccc2c(c1)C/C(=C\c1ccc(O)c(OC)c1)C2=O , what EC50 is on record?
[out] > 200 µM

[in] For the compound O=C1/C(=C/c2ccc(Cl)cc2)CNC/C1=C\c1ccc(Cl)cc1 , what EC50 is on record?
[out] > 151 µM

[in] For the compound COc1cc2c(c(O)c1OC)CC1CCC(=O)N1C2c1cccc2ccccc12 (stereo unspecified) , what EC50 is on record?
[out] > 200 µM

[in] For the compound CN1N(c2ccccc2)C(=O)C2=NC=C(C#N)C(=N)C21C (stereo unspecified) , what EC50 is on record?
[out] > 200 µM

----------
- Test system: CEM cells HIV-1 protection, formazan growth assay
- method: NCI AIDS Antiviral Assay
- test_conditions: measured here: growth of uninfected CEM cells
endpoint: log10 IC50 (log10 of the value in µM)
Short version: log10 scale, IC50, µM.

Solved cases below.
- molecule: "Clc1ccc(CN2COc3c(cc(Cl)c4cccnc34)C2)c(Cl)c1"
  value: 0.24
- molecule: "CCOC(=O)Nc1ccc2nc(N3CCCCC3)sc2c1"
  value: 0.80
- molecule: "O=C1c2ccccc2C(=O)C1(c1ccccn1)[N+](=O)[O-]"
  value: 1.86

[in] Query for CEM cells HIV-1 protection, formazan growth assay: what log10 IC50 does the record show for C/C=C(\C)C(=O)N1c2ccccc2CC1c1c(C)[nH]c2ccccc12 (configuration not stated) ?
[out] 0.84

[in] Query for CEM cells HIV-1 protection, formazan growth assay: what log10 IC50 does the record show for C=CCCC[P+](c1ccccc1)(c1ccccc1)c1ccccc1 ?
[out] 0.06

[in] Query for CEM cells HIV-1 protection, formazan growth assay: what log10 IC50 does the record show for O=C1c2c(O)cc(O)cc2O[C@H](c2ccc(O)cc2)[C@H]1[C@@H]1C(=O)c2c(O)cc(O)cc2O[C@H]1c1ccc(O)cc1 ?
[out] 0.93

[in] Query for CEM cells HIV-1 protection, formazan growth assay: what log10 IC50 does the record show for CC1=COC(=O)c2ccccc2N1 ?
[out] 2.15

[in] Query for CEM cells HIV-1 protection, formazan growth assay: what log10 IC50 does the record show for CCS/C(SC)=C(/c1ccccc1)[P+](c1ccccc1)(c1ccccc1)c1ccccc1 ?
[out] -0.45

[in] Query for CEM cells HIV-1 protection, formazan growth assay: what log10 IC50 does the record show for Cc1cccc(NC(=S)N/N=C(/c2ccccc2)c2ccccn2)c1 ?
[out] -1.03

[in] Query for CEM cells HIV-1 protection, formazan growth assay: what log10 IC50 does the record show for O=C(C(=O)c1cc(-c2ccccc2)nc2ccc3ccccc3c12)c1ccccc1 ?
[out] 2.24

[in] Query for CEM cells HIV-1 protection, formazan growth assay: what log10 IC50 does the record show for CCOC(=O)c1sc2c(c1OC(=O)c1cc(OC)c(OC)c(OC)c1)c(=O)n(-c1ccccc1)c(=S)n2-c1ccccc1 ?
[out] 0.65

[in] Query for CEM cells HIV-1 protection, formazan growth assay: what log10 IC50 does the record show for Cc1ccc(N2C=Nn3c(nc4sc5c(c4c3=O)CCCC5)C2)cc1 ?
[out] 1.63

----------
Entries and their EC50 values follow.
- Test system: CEM cells HIV-1 protection, formazan growth assay
- method: NCI AIDS Antiviral Assay

- compound: "COc1ccc(OC)c2c1-c1nnnn1CCC2(C)C"
  value: "132 µM"

[in] For the compound O=C1CCC(=O)c2cc(Br)ccc2N1 , what EC50 is on record?
[out] > 141 µM

[in] For the compound Clc1ccc2c(c1)-c1c3c(nn1-c1ccccc1)-c1ccccc1SC3O2 (centres undefined) , what EC50 is on record?
[out] > 13.5 µM

[in] For the compound O=C(CC/C=C(/CS(=O)(=O)c1ccccc1)S(=O)(=O)c1ccccc1)c1ccccc1 , what EC50 is on record?
[out] > 100 µM

[in] For the compound C/C=C(\C)C(=O)c1c(OCC)cc(OCC)c2c(CCC)cc(=O)oc12 , what EC50 is on record?
[out] > 126 µM

[in] For the compound COc1ccc2c(c1)nc1n2C(c2c(Cl)cccc2Cl)SC1 (centres undefined) , what EC50 is on record?
[out] > 200 µM

[in] For the compound O=C1NC(=O)C2C3C=CC(C12)C1C2C(=O)NC(=O)C2C31 (centres undefined) , what EC50 is on record?
[out] > 95.5 µM

[in] For the compound Cn1cc(NC(=O)Nc2cc(C(=O)Nc3cc(C(=O)Nc4cc(C(=O)Nc5cc(P(=O)(O)O)c6cccc(P(=O)(O)O)c6c5)n(C)c4)n(C)c3)n(C)c2)cc1C(=O)Nc1cc(C(=O)Nc2cc(C(=O)Nc3cc(P(=O)(O)O)c4cccc(P(=O)(O)O)c4c3)n(C)c2)n(C)c1 , what EC50 is on record?
[out] 0.288 µM

[in] For the compound O=C(NC1C2CC3CC(C2)CC1C3)c1ccncn1 (centres undefined) , what EC50 is on record?
[out] > 513 µM

----------
- System: CEM cells HIV-1 protection, formazan growth assay
- method: NCI AIDS Antiviral Assay;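 active means compounds giving half or more protection of infected cells from virus-caused growth loss, again on retest; inactive means the rest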
The reply should be one of these categories: true for active, false for inactive

- compound: "COc1ccc(CCN(C)C2CCC(C#N)(c3ccc(OC)c(OC)c3)CC2)cc1OC (stereo not given)"
  tested_target: "CEM cells HIV-1 protection, formazan growth assay"
  class: "false"

[in] Call for entry O=C1CCCN(Cc2ccccc2)C(=O)N1 :
[out] false

[in] Call for entry CC(=O)NC1C(OCc2ccccc2)OC(CO)C(O)C1OCC(=O)NC(C)C(=O)NC(CCC(=O)NCCCCNc1ccc([N+](=O)[O-])c2[nH]c3ccccc3c(=O)c12)C(N)=O (stereo not given) :
[out] true

[in] Call for entry Cn1nc(-c2ccc(Cl)c(Cl)c2)[n+]([O-])c2c(=O)n(C)c(=O)nc1-2 :
[out] false

[in] Call for entry CC1=NOC(=O)/C1=C/c1cccc2ccccc12 :
[out] false

[in] Call for entry OCn1nc2c(C3OCCO3)cc3ccccc3n2c1=S :
[out] false

----------
- Tested on: CEM cells HIV-1 protection, formazan growth assay
- method: NCI AIDS Antiviral Assay
- Procedure: The ability of compounds to protect human CEM cells from HIV-1 infection is measured as a screen for new compounds capable of inhibiting the HIV virus. Five concentrations of drug were tested on uninfected and infected cells and cell growth was measured using a soluble formazan assay. […] Compounds that provided at least 50% protection were retested. Compounds that provided at least 50% protection on retest were listed as moderately active. […]
Calls of active or inactive are those of the source.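 How the source made its calls: active means compounds giving half or more protection of infected cells from virus-caused growth loss, again on retest; inactive means the rest.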
endpoint: outcome

Solved cases below.
- molecule: "CCCCCNC(=O)CCCCCCCCCCCNC(=O)CCCCCCCCCCN1C=CC(=CC=C2C=CC(=O)C=C2)C=C1"
  outcome: "inactive"
- molecule: "Cc1cc(Br)ccc1N=Nc1c(C)noc1-c1ccccc1"
  outcome: "inactive"
- molecule: "O=P(O)(O)C1CCCC(P(=O)(O)O)N1 (stereo unspecified)"
  outcome: "inactive"
- molecule: "COc1nc(NC2OC(COC(C)=O)C(OC(C)=O)C(OC(C)=O)C2OC(C)=O)c(C(=O)CCl)c(=O)n1C (stereo unspecified)"
  outcome: "inactive"

[in] For the molecule CC(C)CC(=O)[O-].CC(C)CC(=O)[O-].N.N.N.N.[Co+3].[O-][Cl+3]([O-])([O-])[O-] , what outcome is on record?
[out] inactive

[in] For the molecule Nc1ccc(C(=O)N/C(=C\c2cccc([N+](=O)[O-])c2)c2nc3[nH]c(=S)[nH]c(=O)c3[nH]2)cc1 , what outcome is on record?
[out] inactive

----------
- Test system: CEM cells HIV-1 protection, formazan growth assay
- method: NCI AIDS Antiviral Assay
- test_conditions: measured here: growth of uninfected CEM cells
pIC50: −log10 of the molar value.
Entries and their pIC50 values follow.

- molecule: "Cc1cc(S(=O)(=O)Nc2nc(N)n(C)n2)c(S)cc1Cl"
  tested_target: "CEM cells HIV-1 protection, formazan growth assay"
  pIC50: "< 3.70"
- molecule: "CCOC(=O)c1ccc(CS(=O)(=O)c2ccc(N)cc2)c([N+](=O)[O-])c1"
  tested_target: "CEM cells HIV-1 protection, formazan growth assay"
  pIC50: "< 4.00"
- molecule: "CN(C)Cc1cc(CN(C)C)c(O)c(CN(C)C)c1"
  tested_target: "CEM cells HIV-1 protection, formazan growth assay"
  pIC50: "< 3.70"
- molecule: "CCC1(c2ccc(OC)c(OC)c2)CCN2C(=O)C(O)CC21 (stereo unspecified)"
  tested_target: "CEM cells HIV-1 protection, formazan growth assay"
  pIC50: "< 3.70"
- molecule: "C1CN(P(N2CCOCC2)N2CCOCC2)CCO1"
  tested_target: "CEM cells HIV-1 protection, formazan growth assay"
  pIC50: "< 3.06"

[in] Query for CEM cells HIV-1 protection, formazan growth assay: what pIC50 does the record show for OC1NC2CC3NC(O)C(O)NC3CC2NC1O (stereo unspecified) ?
[out] < 4.00
